TEST SYSTEM: HeLa cell extract proteins (Homo sapiens, UniProt P51149)
Construct: endogenous in cells; host or cells: HeLa cell extract
Sequence (P51149 whole entry): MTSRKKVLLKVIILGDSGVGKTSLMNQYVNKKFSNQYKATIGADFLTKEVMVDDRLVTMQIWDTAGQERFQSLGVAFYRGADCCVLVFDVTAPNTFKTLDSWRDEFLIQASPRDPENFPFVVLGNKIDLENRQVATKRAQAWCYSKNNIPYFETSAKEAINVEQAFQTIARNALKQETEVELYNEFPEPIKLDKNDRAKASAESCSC
Assay type: binding
MEASUREMENT CONTEXT: protein RAB7A; HeLa
REPORTED METRIC: fold changes relative to vehicle control
Just the number.

Below: 4 compounds and their reported fold changes relative to vehicle control.
Nc1nc2c(c(=O)[nH]1)N(C=O)C(CNc1ccc(C(=O)N[C@@H](CCC(=O)O)C(=O)O)cc1)CN2 (some centres unmarked) [LEU, leucovorin] = 0.99
CCCCCCOc1cccc(Cc2cnc(N)nc2N)c1 [compound 2] = 1.58
NCCCNc1ccc(C(=O)NC(CCC(=O)O)C(=O)O)cc1 (centres unmarked) [compound 7] = 1.05
NCCOCCOCC(=O)Nc1nc2ncc(CNc3ccc(C(=O)NC(CCC(=O)O)C(=O)O)cc3)nc2c(=O)[nH]1 (centres unmarked) [compound 6] = 1.31

Bench note: what fold changes relative to vehicle control did Nc1nc2cccc(-c3ccccc3)c2n1Cc1ccc(Cl)c(Cl)c1 [compound 3] show? 1.12

----------
TEST SYSTEM: HeLa cell extract proteins (Homo sapiens, UniProt Q9UJP4)
Construct: endogenous in cells; host or cells: HeLa cell extract
Sequence (Q9UJP4 whole entry): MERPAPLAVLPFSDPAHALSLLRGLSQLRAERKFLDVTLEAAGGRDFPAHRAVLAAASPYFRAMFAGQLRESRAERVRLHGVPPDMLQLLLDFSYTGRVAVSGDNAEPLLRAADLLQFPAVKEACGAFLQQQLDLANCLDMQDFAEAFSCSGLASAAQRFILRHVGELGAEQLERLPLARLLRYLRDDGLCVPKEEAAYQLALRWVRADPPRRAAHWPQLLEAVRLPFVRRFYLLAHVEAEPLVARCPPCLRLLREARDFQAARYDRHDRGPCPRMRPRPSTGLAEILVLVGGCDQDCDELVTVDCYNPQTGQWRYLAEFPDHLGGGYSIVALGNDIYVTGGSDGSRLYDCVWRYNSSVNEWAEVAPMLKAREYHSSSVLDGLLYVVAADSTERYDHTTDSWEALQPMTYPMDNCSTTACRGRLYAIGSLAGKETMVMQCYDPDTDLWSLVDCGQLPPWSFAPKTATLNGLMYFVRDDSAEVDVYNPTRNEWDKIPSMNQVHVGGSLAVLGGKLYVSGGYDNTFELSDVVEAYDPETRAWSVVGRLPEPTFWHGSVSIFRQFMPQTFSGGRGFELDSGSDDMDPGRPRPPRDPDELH
Format: binding
MEASUREMENT CONTEXT: HeLa; protein KLHL21
// values below are reported fold changes relative to vehicle control

CCCCCCOc1cccc(Cc2cnc(N)nc2N)c1 = 1.01

Bench note: what fold changes relative to vehicle control did NCCOCCOCC(=O)Nc1nc2ncc(CNc3ccc(C(=O)NC(CCC(=O)O)C(=O)O)cc3)nc2c(=O)[nH]1 (stereo not drawn) show? 1

Bench note: what fold changes relative to vehicle control did Nc1nc2c(c(=O)[nH]1)N(C=O)C(CNc1ccc(C(=O)N[C@@H](CCC(=O)O)C(=O)O)cc1)CN2 (stereo partly drawn) show? 1.02
